This collection of values is drawn from the supplement of paper PMC11061612.

Tested on: MHH-ES-1 (Ewing's Sarcoma);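 also: after 72 h of two-drug dosing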
protocol: Bliss excess, mean over the matrix (fraction); higher = more synergy
Assign 1 to entries whose Bliss excess meets or exceeds -0.01; assign 0 to the rest.

Some solved cases for reference:
molecule="Cc1c2c(nn1C)CSCc1cc(n(C)n1)CSc1cc(c3ccccc3c1)OCCCc1c(C(=O)O)n(C)c3c-2c(Cl)ccc13 [AZD5991] + CC1(C)CCC(CN2CCN(c3ccc(C(=O)NS(=O)(=O)c4ccc(NCC5CCOCC5)c([N+](=O)[O-])c4)c(Oc4cnc5[nH]ccc5c4)c3)CC2)=C(c2ccc(Cl)cc2)C1 [Venetoclax] (first compound max 1 µM, 7x7, partner max 1 µM)" group=1
molecule="COc1cccc(OCCCN)c1-c1cc(Nc2cnc(C#N)cn2)n[nH]1 [Prexasertib] + C=CCn1c(=O)c2cnc(Nc3ccc(N4CCN(C)CC4)cc3)nc2n1-c1cccc(C(C)(C)O)n1 [AZD1775] (first compound max 1 µM, partner max 1 µM)" group=1
molecule="COc1cc2c(cc1OCCCCCOc1cc3c(cc1OC)C(=O)N1C=C(C)C[C@H]1C=N3)N=C[C@@H]1CC(C)=CN1C2=O [SG3199] + O=C(c1cc(Cc2n[nH]c(=O)c3ccccc23)ccc1F)N1CCN(C(=O)C2CC2)CC1 [Olaparib] (first compound max 0.001 µM, 7x7, partner max 10 µM)" group=0
molecule="C[C@@H](Oc1cc(-c2cnn(C3CCNCC3)c2)cnc1N)c1c(Cl)ccc(F)c1Cl [Crizotinib] + CC1=C(C(=CC=C1)Cl)NC(=O)C2=CN=C(S2)NC3=CC(=NC(=N3)C)N4CCN(CC4)CCO [Dasatinib] (first compound max 10 µM, 7x7, partner max 2 µM)" group=0
molecule="Cc1c2c(nn1C)CSCc1cc(n(C)n1)CSc1cc(c3ccccc3c1)OCCCc1c(C(=O)O)n(C)c3c-2c(Cl)ccc13 [AZD5991] + CN(C)CCCOc1ccc(-c2ccc3ncc4c(c3c2)n(C2CCOCC2)c(=O)n4C)cn1 [AZD0156] (first compound max 1 µM, 7x7, partner max 1 µM)" group=0
molecule="CC(=O)c1c(C)c2cnc(Nc3ccc(N4CCNCC4)cn3)nc2n(C2CCCC2)c1=O [Palbociclib] + CN(CC[C@H](CSC1=CC=CC=C1)NC2=C(C=C(C=C2)S(=O)(=O)NC(=O)C3=CC=C(C=C3)N4CCC(CC4)[C@H](C5=CC=CC=C5C6=CC=C(C=C6)Cl)O)S(=O)(=O)C(F)(F)F)CCO [AZD4320] (first compound max 10 µM, 7x7, partner max 1 µM)" group=1

We next turn to a different molecule, shown below.
Test whether the molecule C=CCn1c(=O)c2cnc(Nc3ccc(N4CCN(C)CC4)cc3)nc2n1-c1cccc(C(C)(C)O)n1 [AZD1775] + C[C@@H]1COCCN1C2=NC(=NC(=C2)C3(CC3)[S@](=N)(=O)C)C4=C5C=CNC5=NC=C4 [AZD6738] (first compound max 1 µM, partner max 10 µM) records Bliss excess of -0.01 or higher. 0
